As shown below, each of these molecules has a reported IC50 value.
- target system: JAK2 (Homo sapiens, UniProt O60674)
- Construct: endogenous in cells; mixed lysate 1:2
- Sequence (O60674 whole entry): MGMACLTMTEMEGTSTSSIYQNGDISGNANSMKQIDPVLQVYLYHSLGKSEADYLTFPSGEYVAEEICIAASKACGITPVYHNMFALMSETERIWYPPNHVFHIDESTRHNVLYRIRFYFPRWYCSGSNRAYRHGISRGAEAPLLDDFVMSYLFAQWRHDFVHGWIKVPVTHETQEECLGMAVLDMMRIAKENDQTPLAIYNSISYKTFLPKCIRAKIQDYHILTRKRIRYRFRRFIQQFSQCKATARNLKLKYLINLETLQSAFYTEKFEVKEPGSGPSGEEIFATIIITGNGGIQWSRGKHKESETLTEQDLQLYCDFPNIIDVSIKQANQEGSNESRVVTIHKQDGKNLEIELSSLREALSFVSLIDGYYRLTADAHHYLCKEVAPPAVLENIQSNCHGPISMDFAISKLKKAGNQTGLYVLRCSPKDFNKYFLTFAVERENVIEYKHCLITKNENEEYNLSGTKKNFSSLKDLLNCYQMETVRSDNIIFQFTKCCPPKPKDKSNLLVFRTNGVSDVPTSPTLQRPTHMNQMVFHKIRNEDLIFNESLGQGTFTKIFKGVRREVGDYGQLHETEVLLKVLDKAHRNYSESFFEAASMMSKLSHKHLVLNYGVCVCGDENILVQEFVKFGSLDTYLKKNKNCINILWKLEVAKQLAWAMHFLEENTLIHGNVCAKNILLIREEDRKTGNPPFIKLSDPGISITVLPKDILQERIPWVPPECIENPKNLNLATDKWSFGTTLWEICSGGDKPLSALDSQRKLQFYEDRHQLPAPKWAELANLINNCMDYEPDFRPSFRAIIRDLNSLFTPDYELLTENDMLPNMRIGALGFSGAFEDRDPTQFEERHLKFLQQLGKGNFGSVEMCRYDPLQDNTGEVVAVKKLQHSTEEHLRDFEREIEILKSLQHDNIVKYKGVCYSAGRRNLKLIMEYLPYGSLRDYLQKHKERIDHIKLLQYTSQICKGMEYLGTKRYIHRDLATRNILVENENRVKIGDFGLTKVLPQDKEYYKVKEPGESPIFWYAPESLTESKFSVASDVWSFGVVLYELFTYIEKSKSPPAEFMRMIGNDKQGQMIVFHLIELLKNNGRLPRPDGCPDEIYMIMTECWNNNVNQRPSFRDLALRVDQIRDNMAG
- experiment summary: Kinobeads assay with immunodetection, JAK2
- test settings: mixed Molt4/Ramos lysate, read-out: Inhibition values (IC50) JAK2

[[record]]
molecule = "CN(C)C(=O)Cn1cc(Nc2ncc(Cl)c(NC[C@H]3CCCN3S(C)(=O)=O)n2)cn1 [Example 68]"
reading = "< 0.1 µM"


Item under review: Cn1cc(Nc2ncc(Cl)c(NC[C@H]3CCCCN3S(C)(=O)=O)n2)cn1 [Example 43] . Reported IC50?
0.1 to 1 µM

What would you report for Cn1cc(Nc2ncc(Cl)c(NC[C@@H]3C[C@H](F)CN3CCC#N)n2)cn1 [Example 90] ?
0.1 to 1 µM

Same thing, different molecule: Cn1cc(Nc2ncc(Cl)c(NC[C@H]3CCCN3CCO)n2)cn1 [Example 48]
1 to 10 µM

Also need Cn1cc(Nc2ncc(Cl)c(NCC3COCCN3CCS(C)(=O)=O)n2)cn1 (centres unmarked) [Example 87] , thanks.
1 to 10 µM

* * *

- target system: TYK2 (Homo sapiens, UniProt P29597)
- Construct: endogenous in cells; host or cells: Molt4 (ATCC CRL-1582) and Ramos (ATCC CRL-1596) cells; mixed lysate 1:2
- Sequence (P29597 whole entry): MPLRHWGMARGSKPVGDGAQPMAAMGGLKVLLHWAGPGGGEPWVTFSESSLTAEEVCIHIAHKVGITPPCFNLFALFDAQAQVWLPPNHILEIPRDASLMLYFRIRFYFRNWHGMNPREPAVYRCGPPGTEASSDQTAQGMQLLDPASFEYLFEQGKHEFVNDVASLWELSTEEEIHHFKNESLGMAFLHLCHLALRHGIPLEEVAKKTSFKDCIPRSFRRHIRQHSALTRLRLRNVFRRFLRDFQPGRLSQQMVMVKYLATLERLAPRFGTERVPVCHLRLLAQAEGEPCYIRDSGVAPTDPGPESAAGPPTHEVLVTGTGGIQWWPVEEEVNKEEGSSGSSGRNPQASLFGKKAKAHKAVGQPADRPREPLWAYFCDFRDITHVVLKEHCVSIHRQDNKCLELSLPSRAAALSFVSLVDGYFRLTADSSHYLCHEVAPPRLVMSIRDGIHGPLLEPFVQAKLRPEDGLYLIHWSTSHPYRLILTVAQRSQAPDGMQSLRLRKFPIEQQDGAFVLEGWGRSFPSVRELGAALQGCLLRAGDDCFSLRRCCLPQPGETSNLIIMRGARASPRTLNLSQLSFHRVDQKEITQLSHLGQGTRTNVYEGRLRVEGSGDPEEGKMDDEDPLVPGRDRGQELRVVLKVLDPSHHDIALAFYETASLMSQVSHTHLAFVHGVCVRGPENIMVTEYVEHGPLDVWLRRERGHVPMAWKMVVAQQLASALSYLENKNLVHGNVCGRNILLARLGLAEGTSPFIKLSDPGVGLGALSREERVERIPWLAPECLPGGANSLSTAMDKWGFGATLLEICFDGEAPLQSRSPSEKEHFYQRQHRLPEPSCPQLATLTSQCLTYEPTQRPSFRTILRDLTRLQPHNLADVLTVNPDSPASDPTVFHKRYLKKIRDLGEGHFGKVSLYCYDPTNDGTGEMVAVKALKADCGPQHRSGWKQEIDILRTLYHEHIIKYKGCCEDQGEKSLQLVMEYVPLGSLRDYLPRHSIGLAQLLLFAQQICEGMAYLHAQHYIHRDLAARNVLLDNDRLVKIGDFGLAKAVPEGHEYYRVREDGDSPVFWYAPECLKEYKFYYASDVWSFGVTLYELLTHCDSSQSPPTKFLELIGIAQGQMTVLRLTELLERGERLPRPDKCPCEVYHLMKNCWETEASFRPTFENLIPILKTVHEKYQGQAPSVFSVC
- experiment summary: Kinobeads assay with immunodetection, TYK2
- Type: binding
- test settings: Kinobeads assay, mixed Molt4/Ramos lysate; read-out: Inhibition values (IC50) Tyk2
value type: IC50

[[record]]
compound = "Cn1cc(Nc2ncc(F)c(NC[C@H]3CCCN3CCC#N)n2)cn1"
reading = "< 100 nM"

[[record]]
compound = "CCN1CCC[C@@H]1CNc1nc(Nc2cnn(C)c2)ncc1Cl"
reading = "100 to 1000 nM"

[[record]]
compound = "Cn1cc(Nc2ncc(Cl)c(NC[C@H]3CCN(CCO)C3)n2)cn1"
reading = "1000 to 10000 nM"

[[record]]
compound = "Cc1cnc(Nc2cnn(CC(F)F)c2)nc1NC[C@@H]1CCCN1C(=O)CC#N"
reading = "< 100 nM"

[[record]]
compound = "CS(=O)(=O)N1CCCC[C@@H]1CNc1nc(Nc2cnn(CCO)c2)ncc1Cl"
reading = "100 to 1000 nM"


What measured IC50 goes with OCCn1cc(Nc2ncc(Cl)c(NCC3CCNC3)n2)cn1 (stereo in doubt) ?
100 to 1000 nM

Another: "Cc1cnc(Nc2cnn(C)c2)nc1NC[C@@H]1CCCN1S(C)(=O)=O"
< 100 nM

Ok, now "Cn1cc(Nc2ncc(Cl)c(NCC3CCOCC3)n2)cn1"
100 to 1000 nM

Record: "Cn1cc(Nc2ncc(Cl)c(NC[C@@H]3CCCN3CCCS(C)(=O)=O)n2)cn1"
100 to 1000 nM

* * *

# IC50 per entry
- target system: JAK2 (Homo sapiens)
- Construct: endogenous in cells; mixed lysate 1:2
- experiment summary: Kinobeads assay with immunodetection, JAK2
- test settings: mixed Molt4/Ramos lysate, read-out: Inhibition values (IC50) JAK2
- Description: Determination of the Effect of the Compounds According to the Invention on Janus Kinases (JAK Family) in Kinobeads™ Assays with Immunodetection of Kinases The compounds of the present invention as described in the previous examples were tested in a Kinobeads™ assay as described for ZAP-70 (WO-A 2007/137867). […] Dose response curves for individual kinases were generated and IC50 values calculated. […]
Where a name gives a salt, the structure may show the parent alone.

See these solved cases before continuing.
[[record]]
compound = "Cl.Cn1cc(Nc2ncc(F)c(NC[C@@H]3CCCN3S(C)(=O)=O)n2)cn1 [Example 75, Hydrochloride]"
value_type = "IC50"
reading = "1 to 10 µM"

[[record]]
compound = "C=CS(=O)(=O)N1CCCC[C@H]1CNc1nc(Nc2cnn(C)c2)ncc1Cl"
value_type = "IC50"
reading = "1 to 10 µM"

[[record]]
compound = "Cc1cnc(Nc2cnn(C)c2)nc1NC[C@@H]1CCCN1 [Example 73, Hydrochloride]"
value_type = "IC50"
reading = "> 10 µM"

[[record]]
compound = "Cn1cc(Nc2ncc(Cl)c(NC[C@@H]3C[C@H](F)CN3C(=O)CCC#N)n2)cn1"
value_type = "IC50"
reading = "1 to 10 µM"

[[record]]
compound = "Cc1cnc(Nc2cnn(C)c2)nc1NC[C@@H]1C[C@H](F)CN1CC#N"
value_type = "IC50"
reading = "1 to 10 µM"


For "Cc1cnc(Nc2cnn(C)c2)nc1NC[C@H]1CCCN1CCC#N" , what is its reported IC50?
1 to 10 µM

Next compound: "CC(=O)N1CCCC[C@H]1CNc1nc(Nc2cnn(C)c2)ncc1Cl"
> 10 µM

Ok, now Cn1cc(Nc2ncc(Cl)c(NCC3CCCN(C(=O)CC#N)C3)n2)cn1 (centres unmarked)
0.1 to 1 µM

# repeat for "CNC(=O)Cn1cc(Nc2ncc(Cl)c(NC[C@@H]3CCCN3)n2)cn1"
> 10 µM

Then what about the compound "Cc1cnc(Nc2cnn(CC(F)F)c2)nc1NC[C@@H]1CCCN1C(=O)CC#N" ?
1 to 10 µM

Thanks! And "CC(=O)N1CC[C@H](CNc2nc(Nc3cnn(C)c3)ncc2Cl)C1" ?
1 to 10 µM

Another compound to look at: "Cn1cc(Nc2ncc(Cl)c(NC[C@H]3CCCN3CC#N)n2)cn1"
0.1 to 1 µM

Now try "CS(=O)(=O)N1CCC[C@@H]1CNc1nc(Nc2cnn(CCO)c2)ncc1Cl" .
0.1 to 1 µM

Again, but for "C=CC(=O)N1CCCC[C@@H]1CNc1nc(Nc2cnn(CCO)c2)ncc1Cl"
0.1 to 1 µM

Same read-out for "Cn1cc(Nc2ncc(Cl)c(NC[C@@H]3CCCN3CCCS(C)(=O)=O)n2)cn1" ?
1 to 10 µM

Query "Cc1cnc(Nc2cnn(C)c2)nc1NC[C@@H]1C[C@H](F)CN1CCC#N" next
0.1 to 1 µM

Now consider "Cc1cnc(Nc2cnn(CC(F)F)c2)nc1NC[C@@H]1C[C@H](F)CN1CCC#N" .
1 to 10 µM
